A collection of binders and their measured koff
# system under test: T1, biotinylated recombinant human IL-12Rβ2 (produced in-house) (human, UniProt Q99665 24-622, random biotinylated)
# T1 construct: also called hIL-12RB2; hIL12RB2
# T1 sequence: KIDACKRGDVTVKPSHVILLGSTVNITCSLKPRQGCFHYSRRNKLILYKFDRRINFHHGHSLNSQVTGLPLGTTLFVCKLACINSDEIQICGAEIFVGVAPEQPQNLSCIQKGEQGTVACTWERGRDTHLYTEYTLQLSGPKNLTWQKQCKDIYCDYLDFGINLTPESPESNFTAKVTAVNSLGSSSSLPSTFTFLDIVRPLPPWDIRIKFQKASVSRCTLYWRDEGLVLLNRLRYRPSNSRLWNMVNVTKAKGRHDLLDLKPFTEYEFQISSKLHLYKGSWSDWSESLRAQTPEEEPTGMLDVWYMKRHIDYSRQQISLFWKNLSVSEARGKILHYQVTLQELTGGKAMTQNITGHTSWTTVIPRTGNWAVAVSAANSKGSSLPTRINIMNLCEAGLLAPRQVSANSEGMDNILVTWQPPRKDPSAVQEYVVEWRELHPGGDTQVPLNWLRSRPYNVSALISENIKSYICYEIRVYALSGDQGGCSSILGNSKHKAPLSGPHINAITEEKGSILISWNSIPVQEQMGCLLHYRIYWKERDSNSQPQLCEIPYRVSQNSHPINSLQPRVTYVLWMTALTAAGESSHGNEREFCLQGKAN
# assay comment: BLI (Octet), P.E. VHH on immobilised biotinylated hIL-12RB2, 1:1 model

binder	koff (s⁻¹)
anti-IL-12Rβ2 VHH clone 3CRH5 (VHH, not shown: small tags and cut ends, tested as periplasmic extract; also called 3CRHS) VHH: QVQLQESGGGLVQAGGSLVLSCAASGSAALIFLMSWYRQAPGKQRELVAEVSRGGSTTYADSVEGRFTISRDNAKNIVDLQMNSLKPEDTAVYYCKADQNYGDSLRSSWGQGTQVTVSS	0.00337
anti-IL-12Rβ2 VHH clone 2CRH82 (VHH, not shown: small tags and cut ends, tested as periplasmic extract) VHH: QVQLQESGGGLVQAGGSLRLSCAASARTESMYAMAWFRQAPGKEREIVAGIIQSGGTTYISDYMKGRFSIDRGNAENTVYLQMDSLKPEDTAVYSCAAKVSSGTPSDIQISQSRWYDHWGQGTQVTVSS	0.00274
anti-IL-12Rβ2 VHH clone 3CAHM11 (VHH, not shown: small tags and cut ends, tested as periplasmic extract) VHH: QVQLQESGGGLVQAGGSLRLSCAASGRTFNNYAMAWFRQAPGKEREFIAAITRSDTTLYIDSVKGRFTISRDNAKNTVALQMNSLKPEDTAVYYCAAGMPYSYSDYPRDSKYDYWGRGTQVTVSS	0.00519
anti-IL-12Rβ2 VHH clone 3CAHS124 (VHH, not shown: small tags and cut ends, tested as periplasmic extract) VHH: QVQLQESGGGLVQPGGSLRLSCAASGRTINAYIMGWFRQAPGKEREFVAAVSGSGGSTYYADSVKGRFTISRDNAKNTVNLQMDNLRSEDTDVYYCAATYESVYLQNPGQYDYWGQGTQVTVSS	0.00324
anti-IL-12Rβ2 VHH clone 3CRHM73 (VHH, not shown: small tags and cut ends, tested as periplasmic extract; also called 21060) VHH: QVQLQESGGGLVQAGGSLSLSCAASGSAFRLNFMGWYRQAPGKQRELVAAINSGGTEIYHDSVKGRFTISRDNADSTVWLQMNSLKPDDTAVYYCAADRGISWSKLAGGMDYWGKGTQVTVSS	0.00605
anti-IL-12Rβ2 VHH clone 3CRHS106 (VHH, not shown: small tags and cut ends, tested as periplasmic extract) VHH: QVQLQESGGGLVQPGGSLRLSCKASGFTFSTYAMSWVRQAPGKGLEWVSAVNSGGLSTDYADSVEGRFTISRDDAKNMLFLQMNSLKPEDTARYYCAKYEDCSDYMCHRDRAGYWGQGTQVTVSS	0.00355
anti-IL-12Rβ2 VHH clone 3CAHS142 (VHH, not shown: small tags and cut ends, tested as periplasmic extract) VHH: QVQLQESGGGLVQAGESLTLSCIASGVIKDYAMGWFRQAPGKEREFVAAISWSGVSIYYADSVKGRFTISRDNAKNTVYLQMNSLEPEDTAVYYCAGTEGAYTVAGGSTFGYDMDYWGKGTQVTVSS	0.00324
anti-IL-12Rβ2 VHH clone 3CAHS171 (VHH, not shown: small tags and cut ends, tested as periplasmic extract; also called 3CANS171) VHH: QVQLQESGGGLVQPGGSLRLTCVASGFPFSTHAMSWVRQPPGKGREWISAINSGGDSTDYADSVMGRFTISRDNAKNTVYLQMNSLKSEDTAAYYCAKYEDCSDYDCSSRASWGQGTQVTVSS	0.00431
